These measurements were taken from the supplement of paper PMC10627819.

- Test system: S. aureus DSM 20231
- Experiment Description: Bliss interaction score (quartile over a dose matrix) (fitness difference); higher = more antagonism (negative = synergy);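 note: first quartile when negative (synergy) and third quartile when positive (antagonism)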
For each of the compounds below, state its Bliss interaction score.

Input: Entry under review: N#CC(C#N)=NNc1cccc(Cl)c1 [CCCP] + CN(C)C(=O)C(CCN1CCC(O)(c2ccc(Cl)cc2)CC1)(c1ccccc1)c1ccccc1 [Loperamide] . Reported Bliss interaction score?
Output: -0.0407

Input: Entry under review: CC1(C)S[C@@H]2[C@H](NC(=O)Cc3ccccc3)C(=O)N2[C@H]1C(=O)O [PenicillinG] + CC[C@H]1OC(=O)[C@H](C)C(=O)[C@H](C)[C@@H](O[C@@H]2O[C@H](C)C[C@H](N(C)C)[C@H]2O)[C@](C)(OC)C[C@@H](C)C(=O)[C@H](C)[C@H]2N(CCCCn3cnc(-c4cccnc4)c3)C(=O)O[C@]12C [Telithromycin] . Reported Bliss interaction score?
Output: 0.0277

Input: Entry under review: Cn1c(=O)c2c(ncn2C)n(C)c1=O [Caffeine] + O=C(N[C@H](CO)[C@H](O)c1ccc([N+](=O)[O-])cc1)C(Cl)Cl [Chloramphenicol] . Reported Bliss interaction score?
Output: -0.3

Input: Entry under review: CO/N=C(\C(=O)N[C@@H]1C(=O)N2C(C(=O)O)=C(COC(N)=O)CS[C@H]12)c1ccco1 [Cefuroxime] + O=C(N[C@H](CO)[C@H](O)c1ccc([N+](=O)[O-])cc1)C(Cl)Cl [Chloramphenicol] . Reported Bliss interaction score?
Output: -0.341

###

- Test system: S. pneumoniae D39V
- Experiment Description: Bliss interaction score (quartile over a dose matrix) (fitness difference); higher = more antagonism (negative = synergy)
Each record gets a class by Bliss interaction score: low (below -0.04), medium (-0.04 to below 0.04), high (0.04 or more)

Input: Band for the recorded Bliss interaction score of CO/N=C(\C(=O)N[C@@H]1C(=O)N2C(C(=O)O)=C(COC(C)=O)CS[C@H]12)c1csc(N)n1 [Cefotaxime] + CC[C@H]1OC(=O)[C@H](C)C(=O)[C@H](C)[C@@H](O[C@@H]2O[C@H](C)C[C@H](N(C)C)[C@H]2O)[C@](C)(OC)C[C@@H](C)C(=O)[C@H](C)[C@H]2N(CCCCn3cnc(-c4cccnc4)c3)C(=O)O[C@]12C [Telithromycin] ?
Output: high

Input: Band for the recorded Bliss interaction score of C[C@H]1c2cccc(O)c2C(=O)C2=C(O)[C@]3(O)C(=O)C(C(N)=O)=C(O)[C@@H](N(C)C)[C@@H]3[C@@H](O)[C@@H]21 [Doxycycline] + C[C@@H](O)[C@H]1C(=O)N2C(C(=O)O)=C(SCCNC=N)C[C@H]12 [Imipenem] ?
Output: medium

Input: Band for the recorded Bliss interaction score of COc1cccc2c1C(=O)c1c(O)c3c(c(O)c1C2=O)C[C@@](O)(C(=O)CO)C[C@@H]3O[C@H]1C[C@H](N)[C@H](O)[C@H](C)O1 [Doxorubicin] + CC(=O)NC[C@H]1CN(c2ccc(N3CCOCC3)c(F)c2)C(=O)O1 [Linezolid] ?
Output: low

Input: Band for the recorded Bliss interaction score of CC(=O)Oc1ccccc1C(=O)O [Acetylsalicylicacid] + O=C1CN(/N=C/c2ccc([N+](=O)[O-])o2)C(=O)N1 [Nitrofurantoin] ?
Output: high

Input: Band for the recorded Bliss interaction score of CN(C)[C@@H]1C(O)=C(C(N)=O)C(=O)[C@@]2(O)C(O)=C3C(=O)c4c(O)ccc(Cl)c4[C@@](C)(O)[C@H]3C[C@@H]12 [Clortetracycline] + CO[C@@H]1[C@@H](OC(N)=O)[C@@H](O)[C@H](Oc2ccc3c(O)c(NC(=O)c4ccc(O)c(CC=C(C)C)c4)c(=O)oc3c2C)OC1(C)C [Novobiocin] ?
Output: high

Input: Band for the recorded Bliss interaction score of CO/N=C(\C(=O)N[C@@H]1C(=O)N2C(C(=O)O)=C(COC(N)=O)CS[C@H]12)c1ccco1 [Cefuroxime] + O=C(O)[C@H]1/C(=C/CO)O[C@@H]2CC(=O)N21 [Clavulanic] ?
Output: medium

Input: Band for the recorded Bliss interaction score of CO/N=C(\C(=O)N[C@@H]1C(=O)N2C(C(=O)O)=C(COC(C)=O)CS[C@H]12)c1csc(N)n1 [Cefotaxime] + O=C(N[C@H](CO)[C@H](O)c1ccc([N+](=O)[O-])cc1)C(Cl)Cl [Chloramphenicol] ?
Output: high

Input: Band for the recorded Bliss interaction score of CO/N=C(\C(=O)N[C@@H]1C(=O)N2C(C(=O)O)=C(COC(N)=O)CS[C@H]12)c1ccco1 [Cefuroxime] + CN[C@@H]1[C@H](O)[C@H](NC)[C@H]2O[C@@]3(O)C(=O)C[C@@H](C)O[C@H]3O[C@@H]2[C@H]1O [Spectinomycin] ?
Output: high

Input: Band for the recorded Bliss interaction score of CN(C)[C@@H]1C(O)=C(C(N)=O)C(=O)[C@@]2(O)C(O)=C3C(=O)c4c(O)ccc(Cl)c4[C@@](C)(O)[C@H]3C[C@@H]12 [Clortetracycline] + CC1=C\[C@@H](O)CC(=O)Cc2nc(co2)C(=O)N2CCC=C2C(=O)O[C@H](C(C)C)[C@H](C)/C=C/C(=O)NC\C=C\1 [Virginiamycin M1] ?
Output: low

Input: Band for the recorded Bliss interaction score of CO/N=C(\C(=O)N[C@@H]1C(=O)N2C(C(=O)O)=C(COC(N)=O)CS[C@H]12)c1ccco1 [Cefuroxime] + COc1ccc(C[C@H](N)C(=O)N[C@H]2[C@@H](O)[C@H](n3cnc4c(N(C)C)ncnc43)O[C@@H]2CO)cc1 [Puromycin] ?
Output: high

Input: Band for the recorded Bliss interaction score of CO/N=C(\C(=O)N[C@@H]1C(=O)N2C(C(=O)O)=C(COC(C)=O)CS[C@H]12)c1csc(N)n1 [Cefotaxime] + Cc1onc(-c2ccccc2)c1C(=O)N[C@@H]1C(=O)N2[C@@H]1SC(C)(C)[C@@H]2C(=O)O [Oxacillin] ?
Output: low

Input: Band for the recorded Bliss interaction score of C[C@@H]1O[C@@H]1P(=O)(O)O [Fosfomycin] + C[C@@H](O)[C@H]1C(=O)N2C(C(=O)O)=C(SCCNC=N)C[C@H]12 [Imipenem] ?
Output: medium

Input: Band for the recorded Bliss interaction score of Cc1ncc([N+](=O)[O-])n1CCO [Metronidazole] + CN[C@@H]1[C@H](O[C@H]2[C@H](O[C@H]3[C@H](O)[C@@H](O)[C@H](N=C(N)N)[C@@H](O)[C@@H]3N=C(N)N)O[C@@H](C)[C@]2(O)C=O)O[C@@H](CO)[C@H](O)[C@H]1O [Streptomycin] ?
Output: high

Input: Band for the recorded Bliss interaction score of COc1cccc2c1C(=O)c1c(O)c3c(c(O)c1C2=O)C[C@@](O)(C(=O)CO)C[C@@H]3O[C@H]1C[C@H](N)[C@H](O)[C@H](C)O1 [Doxorubicin] + C[C@H]1COc2c(N3CCN(C)CC3)c(F)cc3c(=O)c(C(=O)O)cn1c23 [Levofloxacin] ?
Output: low

Input: Band for the recorded Bliss interaction score of N#CC(C#N)=NNc1cccc(Cl)c1 [CCCP] + CC1=C(C(=O)O)N2C(=O)[C@@H](NC(=O)[C@H](N)c3ccccc3)[C@H]2SC1 [Cephalexin] ?
Output: low

Input: Band for the recorded Bliss interaction score of CO/N=C(\C(=O)N[C@@H]1C(=O)N2C(C(=O)O)=C(COC(N)=O)CS[C@H]12)c1ccco1 [Cefuroxime] + C[n+]1ccc(-c2cc[n+](C)cc2)cc1 [Paraquat] ?
Output: medium

###

- Test system: S. aureus DSM 20231
- Experiment Description: Bliss interaction score (quartile over a dose matrix) (fitness difference); higher = more antagonism (negative = synergy)
Measured Metric: Bliss interaction score
Format: numeric value only, no unit, no commentary.

Input: Entry under review: COc1ccc(C[C@H](N)C(=O)N[C@H]2[C@@H](O)[C@H](n3cnc4c(N(C)C)ncnc43)O[C@@H]2CO)cc1 [Puromycin] + Cn1nnc(-c2ccc(-c3ccc(N4C[C@H](CO)OC4=O)cc3F)cn2)n1 [Tedizolid] . Reported Bliss interaction score?
Output: -0.0959

Input: Entry under review: COc1cccc2c1C(=O)c1c(O)c3c(c(O)c1C2=O)C[C@@](O)(C(=O)CO)C[C@@H]3O[C@H]1C[C@H](N)[C@H](O)[C@H](C)O1 [Doxorubicin] + CCN(CC)CCOC(=O)c1ccc(N)cc1 [Procaine] . Reported Bliss interaction score?
Output: -0.0642

Input: Entry under review: COc1cccc2c1C(=O)c1c(O)c3c(c(O)c1C2=O)C[C@@](O)(C(=O)CO)C[C@@H]3O[C@H]1C[C@H](N)[C@H](O)[C@H](C)O1 [Doxorubicin] + C[C@@H](O)[C@H]1C(=O)N2C(C(=O)O)=C(SCCNC=N)C[C@H]12 [Imipenem] . Reported Bliss interaction score?
Output: -0.0485

Input: Entry under review: COc1ccc(C[C@H](N)C(=O)N[C@H]2[C@@H](O)[C@H](n3cnc4c(N(C)C)ncnc43)O[C@@H]2CO)cc1 [Puromycin] + CN[C@@H]1[C@H](O)[C@H](NC)[C@H]2O[C@@]3(O)C(=O)C[C@@H](C)O[C@H]3O[C@@H]2[C@H]1O [Spectinomycin] . Reported Bliss interaction score?
Output: 0.0575
